System: Brugia malayi
Assay: WHO-TDR: Lymphatic Filariasis
Type: functional
Parameters: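 tested at 10 µM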
Catalogue of % Inhibition values
PROPERTY NAME: % Inhibition

1. O=C(NCCNc1ccc(Nc2ccccn2)nn1)c1ccc(C(F)(F)F)cc1 50%
2. CC(=O)Nc1ccc2nc(Nc3nc4ccc(C(C)C)cc4s3)sc2c1 100%
3. Cc1nc2ccc3nc(Nc4nc5c(F)cccc5s4)sc3c2s1 100%
4. Cc1ccc(-c2cc(CC(=O)Nc3cccc(C)n3)no2)cc1 0%
5. COc1nn(C)cc1-c1nnc(SCC(=O)N2CCC(Cc3ccccc3)CC2)n1C 0%
6. COc1cccc(C(=O)Nc2nnc(SCc3ccc(Br)cc3)s2)c1 100%

###

Tested on: Plasmodium falciparum K1
Test: WHO-TDR: Malaria
Format: functional, organism-based, Homo sapiens
Conditions: Erythrocyte
PROPERTY NAME: IC50

COMPOUND	PROPERTY NAME	MEASURED
Cc1ccc(S(=O)(=O)N(C)CC(O)COc2c(C)cc(C)cc2C)cc1 (configuration not stated)	IC50	> 11.3 µg/mL
Cc1cc(C)c2sc(NC(=O)c3nc4ccccc4s3)nc2c1	IC50	> 10.2 µg/mL
COc1ccccc1-c1nnc(NC(=O)c2ccc(S(=O)(=O)N(C)Cc3ccco3)cc2)o1	IC50	10.2 µg/mL
COc1ccc(C)c2sc(N(CCCN(C)C)C(=O)c3ccccc3SC)nc12	IC50	0.506 µg/mL
CCCCc1ccc(NC(=O)CSc2nccn2-c2ccccc2)cc1	IC50	> 11 µg/mL
O=C(c1ccc(C(F)(F)F)cc1)N1CCN(c2ccc(Nc3cccnc3)nn2)CC1	IC50	> 12.9 µg/mL
CCSc1ccccc1C(=O)Nc1nnc(-c2cccs2)o1	IC50	> 9.94 µg/mL
O=C(c1ccc(F)c(F)c1)N1CCN(c2nccn2-c2cccc(Cl)c2)CC1	IC50	> 13.2 µg/mL
Cc1cccc(NC(=O)Cn2nc(C(C)C)c3cnn(-c4ccccc4C)c3c2=O)c1	IC50	> 12.5 µg/mL
Cc1ccc(S(=O)(=O)N2CCN(c3ccc(Nc4cccnc4)nn3)CC2)c(C)c1	IC50	0.716 µg/mL
O=C(CSc1ccc2nnc(-c3ccccn3)n2n1)NCC1CCCO1 (configuration not stated)	IC50	3.16 µg/mL
CC(C)(C)c1ccc(-c2csc(NC(=O)c3ccc4ncsc4c3)n2)cc1	IC50	2.77 µg/mL
CC(=O)Nc1ccc2nc(Nc3nc4ccc(C(C)C)cc4s3)sc2c1	IC50	2.19 µg/mL
Cc1cc2cc(CNC(=O)c3ccccc3Br)ccc2n1C	IC50	> 10.7 µg/mL
CCCCOc1ccc(C(=O)N2CCN(c3cc(OC)nc(OC)n3)CC2)cc1	IC50	> 12 µg/mL
COc1ccc(SCC(=O)Nc2nc(-c3ccccn3)cs2)cc1	IC50	> 10.7 µg/mL
COc1cccc(-c2cn3c(C(=O)N4CCN(c5ccccc5OC)CC4)csc3n2)c1	IC50	> 13.5 µg/mL
O=S(=O)(CCCOc1ccc2c(c1)OCO2)NCCc1c[nH]c2ccccc12	IC50	> 12.1 µg/mL
O=S(=O)(c1cccc(Cl)c1)N1CCN(c2ccc(Nc3ccncc3)nn2)CC1	IC50	5.77 µg/mL
CCOC(=O)Cn1/c(=N\C(=O)CCCS(=O)(=O)Cc2ccccc2)sc2cc(F)ccc21	IC50	> 14.4 µg/mL
O=C(CCc1csc(NC(=O)c2ccco2)n1)Nc1ccc(Cl)cc1	IC50	> 11.3 µg/mL
COc1ccc(C)cc1S(=O)(=O)NCCNc1ccc(Nc2cccc(C)n2)nn1	IC50	3.4 µg/mL
